// Phage binding ELISA signal, Anti-PSMA Fab with PSMA antigen lookup, one value per entry
target: T1, PSMA Fab (006 PSMA Fab) (biotinylated (site not stated)); test: clonal phage ELISA on captured PSMA Fab pre-incubated with PSMA antigen as competitor;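 note: crude clonal phage supernatants added to wells without washing away the PSMA competitor, bound phage detected by HRP-conjugated anti-M13 antibody, reference wells received blocking buffer only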
T1 construct: In the clonal phage ELISA the biotinylated PSMA Fab was captured on neutravidin coated plates; also called Anti-PSMA Fab
Answer with a number only.

Consider the following illustrative entries.
>>> print(df.to_string())
                        binder  measured_result
0  IDKMCVPSWMCWGF [Phage-3374]           0.0876
1  QEIYCVPEWMCSWF [Phage-3375]           0.0642
2  QLPMCVPRWMCDGW [Phage-3366]            0.129

Query string: Consider the binder HDLRCVPEWMCYGL [Phage-3377] . State its measured Phage binding ELISA signal, Anti-PSMA Fab with PSMA antigen.
Result string: 0.0734

Query string: Answer with the recorded Phage binding ELISA signal, Anti-PSMA Fab with PSMA antigen for the binder listed here: EYIRCVPSWMCLDL [Phage-3376]
Result string: 0.0615

Query string: Specify reported Phage binding ELISA signal, Anti-PSMA Fab with PSMA antigen for the binder shown: DHVMCKPKWMCEGF [Phage-3367]
Result string: 0.0947

Query string: For LSIKCVPDWMCTGF [Phage-3370] , write its Phage binding ELISA signal, Anti-PSMA Fab with PSMA antigen.
Result string: 0.09

Query string: Consider the binder IAVMCKPEWMCVGF [Phage-3368] and give its recorded Phage binding ELISA signal, Anti-PSMA Fab with PSMA antigen.
Result string: 0.0964
